The entries below are paired with their reported IFNγ Production IC50 (pM), 3F8 cells.
TARGET UNDER TEST: T1, IL-2 receptor of the human CD4 positive T cell clone 3F8 (expresses CD25 and CD122) (human, UniProt P01589 22-272; P14784 27-551)
T1 sequence 1: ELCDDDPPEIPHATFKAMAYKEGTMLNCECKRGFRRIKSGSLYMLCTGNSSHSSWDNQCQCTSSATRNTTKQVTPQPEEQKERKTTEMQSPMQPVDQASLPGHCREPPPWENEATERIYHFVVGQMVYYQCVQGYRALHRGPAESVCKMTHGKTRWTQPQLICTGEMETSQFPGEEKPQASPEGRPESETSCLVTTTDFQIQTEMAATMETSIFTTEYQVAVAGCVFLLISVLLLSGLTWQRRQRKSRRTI
T1 sequence 2: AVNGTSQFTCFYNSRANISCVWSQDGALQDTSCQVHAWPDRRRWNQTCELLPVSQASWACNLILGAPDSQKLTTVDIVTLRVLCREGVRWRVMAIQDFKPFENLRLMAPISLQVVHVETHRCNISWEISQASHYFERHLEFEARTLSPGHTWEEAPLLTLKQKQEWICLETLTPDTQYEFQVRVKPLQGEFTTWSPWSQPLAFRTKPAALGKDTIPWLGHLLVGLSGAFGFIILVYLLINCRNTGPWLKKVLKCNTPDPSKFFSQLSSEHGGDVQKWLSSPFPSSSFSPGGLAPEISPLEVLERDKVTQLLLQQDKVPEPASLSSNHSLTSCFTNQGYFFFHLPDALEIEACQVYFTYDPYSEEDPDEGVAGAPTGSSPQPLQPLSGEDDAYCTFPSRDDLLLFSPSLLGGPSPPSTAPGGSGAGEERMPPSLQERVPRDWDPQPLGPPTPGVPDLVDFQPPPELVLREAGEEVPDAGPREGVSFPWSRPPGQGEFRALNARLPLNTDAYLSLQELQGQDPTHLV
ASSAY SUMMARY: cell-based or functional assay
READOUT NAME: IFNγ Production IC50 (pM), 3F8 cells

INSERT INTO assay_data (binder, readout_name, value_measured) VALUES
  ('hIL2 mutein VEK (L18V, Q22E, Q126K) (ligand) APTSSSTKKTQLQLEHLVLDLEMILNGINNYKNPKLTRMLTFKFYMPKKATELKHLQCLEEELKPLEEVLNLAQSKNFHLRPRDLISNINVIVLELKGSETTFMCEYADETATIVEFLNRWITFCKSIISTLT', 'IFNγ Production IC50 (pM), 3F8 cells', 4.6),
  ('hIL2 mutein IEK (L18I, Q22E, Q126K) (ligand) APTSSSTKKTQLQLEHLILDLEMILNGINNYKNPKLTRMLTFKFYMPKKATELKHLQCLEEELKPLEEVLNLAQSKNFHLRPRDLISNINVIVLELKGSETTFMCEYADETATIVEFLNRWITFCKSIISTLT', 'IFNγ Production IC50 (pM), 3F8 cells', 8.8),
  ('hIL2 mutein REE (L18R, Q22E, Q126E) (ligand) APTSSSTKKTQLQLEHLRLDLEMILNGINNYKNPKLTRMLTFKFYMPKKATELKHLQCLEEELKPLEEVLNLAQSKNFHLRPRDLISNINVIVLELKGSETTFMCEYADETATIVEFLNRWITFCESIISTLT', 'IFNγ Production IC50 (pM), 3F8 cells', 18.4),
  ('hIL2 mutein RER (L18R, Q22E, Q126R) (ligand) APTSSSTKKTQLQLEHLRLDLEMILNGINNYKNPKLTRMLTFKFYMPKKATELKHLQCLEEELKPLEEVLNLAQSKNFHLRPRDLISNINVIVLELKGSETTFMCEYADETATIVEFLNRWITFCRSIISTLT', 'IFNγ Production IC50 (pM), 3F8 cells', 13.1);
